- measured target: protein-protein interaction between Kras and SOS1 (biotin-tagged human Kras loaded with GDP, His-tagged human SOS1) (Homo sapiens (Human), UniProt P01116, G12D)
- test description: Protein-protein interaction inhibition between Kras and SOS1 (KrasG12D-SOS PPI) using AlphaScreen
- Type: biochemical
- conditions: AlphaScreen; biotin-tagged human Kras loaded with GDP, His-tagged human SOS1; read-out: KRAS G12D-SOS PPI IC50
Numbered stars: 1 amine (or outer) side, 2 acyl side, 3 side chain; on linkers, the order of the positions; unused ones are H or OH. Bridge positions count the residues as written; N and C are the ends. Square brackets hold non-standard residues; d marks the D form. Peptide text beside a SMILES is read from it. * marks the point of attachment. hPhe(3,5-F2-4-CF3) = N[C@@H](CCc1cc(F)c(C(F)(F)F)c(F)c1)C(=O)O; hPhe(3-Cl-4-CF3) = N[C@@H](CCc1ccc(C(F)(F)F)c(Cl)c1)C(=O)O; X1 = O=C([C@H](CCc1ccc(OC(F)F)c(F)c1)N[*:1])[*:2]; NMeGly(cPent) = CN[C@H](C(=O)O)C1CCCC1; Pro(4,4-F2) = O=C(O)[C@@H]1CC(F)(F)CN1; NMeGly(cBu) = CN[C@H](C(=O)O)C1CCC1; NMeCha = CN[C@@H](CC1CCCCC1)C(=O)O; NMeGly(cPr) = CN[C@H](C(=O)O)C1CC1; Gly(cBu) = N[C@H](C(=O)O)C1CCC1; N(CH2CH2)2CF2 = FC1(F)CCN(*)CC1; NMeD = CN[C@@H](CC(=O)O)C(=O)O; dNMeD = CN[C@H](CC(=O)O)C(=O)O; NMeL = CN[C@@H](CC(C)C)C(=O)O; NMeV = CN[C@H](C(=O)O)C(C)C; Azetidin(1-yl) = C1CN(*)C1; NPhGly = O=C(O)CNc1ccccc1; NMeA = CN[C@@H](C)C(=O)O; Piperidide = C1CCN(*)CC1; Ac5c = NC1(C(=O)O)CCCC1; Aze = O=C(O)[C@@H]1CCN1; Sar = CNCC(=O)O
Overview of recorded IC50 for various compounds
The answer is to be given in nM; state only the numeric part.

Would you please look over these solved cases?
| compound | numeric readout |
| --- | --- |
| CC[C@H](C)[C@@H]1NC(=O)[C@H](CC(C)C)N(C)C(=O)C[C@@H](C(=O)N2CCC2)N(C)C(=O)[C@H](C2CCCC2)N(C)C(=O)C2(CCCC2)NC(=O)[C@@H]2CC(F)(F)CN2C(=O)[C@H](CCc2cc(F)c(C(F)(F)F)c(F)c2)NC(=O)CN(C)C(=O)[C@H](CC2CCCCC2)N(C)C(=O)[C@@H]2CCN2C(=O)[C@H](C)N(C)C1=O [Compound 1248] ([NMeL]I[NMeA][Aze][NMeCha][Sar][hPhe(3,5-F2-4-CF3)][Pro(4,4-F2)][Ac5c][NMeGly(cPent)][NMeD]-{Azetidin(1-yl)}; lactam N-11) | 0.67 |
| CC[C@H](C)[C@@H]1NC(=O)[C@H](C2CC2)N(C)C(=O)C[C@@H](C(=O)N2CCCCC2)N(C)C(=O)[C@H](C(C)C)N(C)C(=O)C2(CCCC2)NC(=O)[C@@H]2CCCN2C(=O)[C@H](CCc2ccc(C(F)(F)F)c(Cl)c2)NC(=O)CN(C)C(=O)[C@H](CC2CCCCC2)N(C)C(=O)[C@@H]2CCN2C(=O)[C@H](C)N(C)C1=O [Compound 100] ([NMeGly(cPr)]I[NMeA][Aze][NMeCha][Sar][hPhe(3-Cl-4-CF3)]P[Ac5c][NMeV][NMeD]-Piperidide; lactam N-11) | 7.4 |
| CC[C@H](C)[C@@H]1NC(=O)[C@H](C)N(C)C(=O)C[C@@H](C(=O)N2CCCCC2)N(C)C(=O)[C@H](C(C)C)N(C)C(=O)C2(CCCC2)NC(=O)[C@@H](CC(=O)N2CCC(F)(F)CC2)N(C)C(=O)[C@H](CCc2ccc(C(F)(F)F)c(Cl)c2)NC(=O)CN(C)C(=O)[C@H](CC2CCCCC2)N(C)C(=O)CN(C)C(=O)CN(C)C1=O [Compound 1025] ([NMeA]I[Sar][Sar][NMeCha][Sar][hPhe(3-Cl-4-CF3)][dNMeD](N(CH2CH2)2CF2)[Ac5c][NMeV][NMeD]-Piperidide; lactam N-11) | 4.3 |
| CC(C)C[C@H]1C(=O)N[C@@H](C2CCC2)C(=O)N(C)[C@@H](C)C(=O)N2CC[C@H]2C(=O)N(C)[C@@H](CC2CCCCC2)C(=O)N(C)CC(=O)N[C@@H](CCc2ccc(C(F)(F)F)c(Cl)c2)C(=O)N2CCC[C@H]2C(=O)NC2(CCCC2)C(=O)N(C)[C@@H](C(C)C)C(=O)N(C)[C@H](C(=O)N2CCCCC2)CC(=O)N1C [Compound 157] ([NMeL][Gly(cBu)][NMeA][Aze][NMeCha][Sar][hPhe(3-Cl-4-CF3)]P[Ac5c][NMeV][NMeD]-Piperidide; lactam N-11) | 7.5 |
| CC[C@H](C)[C@@H]1NC(=O)[C@H](C)N(C)C(=O)C[C@@H](C(=O)N2CCCCC2)N(C)C(=O)[C@H](C2CCC2)N(C)C(=O)C2(CCCC2)NC(=O)CN(c2ccccc2)C(=O)[C@H](CCc2ccc(C(F)(F)F)c(Cl)c2)NC(=O)CN(C)C(=O)[C@H](CC2CCCCC2)N(C)C(=O)CN(C)C(=O)CN(C)C1=O [Compound 2151] ([NMeA]I[Sar][Sar][NMeCha][Sar][hPhe(3-Cl-4-CF3)][NPhGly][Ac5c][NMeGly(cBu)][NMeD]-Piperidide; lactam N-11) | 2.5 |

# evaluate next
Lab note: CC[C@H](C)[C@@H]1NC(=O)[C@H](CC(C)C)N(C)C(=O)C[C@@H](C(=O)N2CCCCC2)N(C)C(=O)[C@H](C2CCCC2)N(C)C(=O)C2(CCCC2)NC(=O)[C@@H]2CCCN2C(=O)[C@H](CCc2ccc(OC(F)F)c(F)c2)NC(=O)CN(C)C(=O)[C@H](CC2CCCCC2)N(C)C(=O)[C@@H]2CCN2C(=O)[C@H](C)N(C)C1=O [Compound 2076] ([NMeL]I[NMeA][Aze][NMeCha][Sar][X1]P[Ac5c][NMeGly(cPent)][NMeD]-Piperidide; lactam N-11 (inferred); C-terminus assumed) gave IC50 of 2.5

* * *

- measured target: protein-protein interaction between Kras and SOS1 (biotin-tagged human Kras loaded with GDP, His-tagged human SOS1) (Homo sapiens (Human), UniProt P01116, G12D)
- test description: Protein-protein interaction inhibition between Kras and SOS1 (KrasG12D-SOS PPI) using AlphaScreen
- Type: biochemical
- conditions: AlphaScreen; biotin-tagged human Kras loaded with GDP, His-tagged human SOS1; read-out: KRAS G12D-SOS PPI IC50
Bridge positions count the residues as written; N and C are the ends. Square brackets hold non-standard residues; d marks the D form. Peptide text beside a SMILES is read from it. * marks the point of attachment. NMePhe(4-Cl) = CN[C@@H](Cc1ccc(Cl)cc1)C(=O)O; Phe(3-I) = N[C@@H](Cc1cccc(I)c1)C(=O)O; Hyp = O=C(O)[C@@H]1C[C@@H](O)CN1; NMeF = CN[C@@H](Cc1ccccc1)C(=O)O; NMeL = CN[C@@H](CC(C)C)C(=O)O; NMeA = CN[C@@H](C)C(=O)O; Pyrrolidide = C1CCN(*)C1; Sar = CNCC(=O)O
measured property: IC50 (nM)
The answer is to be given in nM; state only the numeric part.

Lab note: CCO[C@@H]1C[C@H]2C(=O)N(C)[C@@H](Cc3ccccc3)C(=O)N(C)[C@@H](CC(C)C)C(=O)N[C@H](C(=O)N3CCCC3)CC(=O)N(C)[C@@H](C)C(=O)N[C@@H]([C@@H](C)CC)C(=O)N(C)CC(=O)N(C)CC(=O)N(C)[C@@H](Cc3ccc(Cl)cc3)C(=O)N(C)CC(=O)N[C@@H](Cc3cccc(I)c3)C(=O)N2C1 [Compound 634] ([NMeA]I[Sar][Sar][NMePhe(4-Cl)][Sar][Phe(3-I)][Hyp](Et)[NMeF][NMeL]D-Pyrrolidide; lactam N-11) gave IC50 of 260

* * *

- measured target: protein-protein interaction between Kras and SOS1 (biotin-tagged human Kras loaded with GDP, His-tagged human SOS1) (Homo sapiens (Human), UniProt P01116, G12D)
- test description: Protein-protein interaction inhibition between Kras and SOS1 (KrasG12D-SOS PPI) using AlphaScreen;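 note: kras produced in E. coli, Ni-coupled donor beads and streptavidin acceptor beads, excitation 680 nm with emission detected at 520–620 nm via singlet oxygen transfer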
- Format: biochemical
- conditions: AlphaScreen; biotin-tagged human Kras loaded with GDP, His-tagged human SOS1; read-out: KRAS G12D-SOS PPI IC50
Bridge positions count the residues as written; N and C are the ends. Square brackets hold non-standard residues; d marks the D form. Peptide text beside a SMILES is read from it. * marks the point of attachment. hPhe(3-Cl-4-CF3) = N[C@@H](CCc1ccc(C(F)(F)F)c(Cl)c1)C(=O)O; NMePhe(4-Cl) = CN[C@@H](Cc1ccc(Cl)cc1)C(=O)O; Ala(cPent) = N[C@@H](CC1CCCC1)C(=O)O; NMeCha = CN[C@@H](CC1CCCCC1)C(=O)O; NMeCba = CN[C@@H](CC1CCC1)C(=O)O; NMeD = CN[C@@H](CC(=O)O)C(=O)O; CH2CONHtBu = CC(C)(C)NC(=O)C*; NMeL = CN[C@@H](CC(C)C)C(=O)O; NMeV = CN[C@H](C(=O)O)C(C)C; d(β3hA) = C[C@@H](N)CC(=O)O; NMeS = CN[C@@H](CO)C(=O)O; Pip = O=C(O)[C@@H]1CCCCN1; NMeA = CN[C@@H](C)C(=O)O; NMeAib = CNC(C)(C)C(=O)O; Nle = CCCC[C@H](N)C(=O)O; Piperidide = C1CCN(*)CC1; Ac5c = NC1(C(=O)O)CCCC1; Aze = O=C(O)[C@@H]1CCN1; Sar = CNCC(=O)O
With a cut-off of 70 nM, any IC50 strictly below it is called 1 (yes); any IC50 meeting it or above is called 0 (no).

| molecule | label class |
| --- | --- |
| CC[C@H](C)[C@@H]1NC(=O)[C@H](CC(C)C)N(C)C(=O)C[C@@H](C)NC(=O)[C@H](C(C)C)N(C)C(=O)C2(CCCC2)NC(=O)[C@@H]2CCCN2C(=O)[C@H](CCc2ccc(C(F)(F)F)c(Cl)c2)NC(=O)CN(C)C(=O)[C@H](Cc2ccc(Cl)cc2)N(C)C(=O)[C@@H]2CCN2C(=O)[C@H](C)N(C)C1=O [Compound 1018] (cyclo([Ac5c][NMeV][d(β3hA)][NMeL]I[NMeA][Aze][NMePhe(4-Cl)][Sar][hPhe(3-Cl-4-CF3)]P)) | 1 (yes) |

Please indicate whether the reported IC50 of CC[C@H](C)[C@@H]1NC(=O)[C@H](CC(C)C)N(C)C(=O)C[C@@H](C)NC(=O)[C@H](C(C)C)N(C)C(=O)C2(CCCC2)NC(=O)[C@@H]2CCCN2C(=O)[C@H](CCc2ccc(C(F)(F)F)c(Cl)c2)NC(=O)CN(C)C(=O)[C@H](CC2CCCCC2)N(C)C(=O)[C@@H]2CCN2C(=O)[C@H](COCC(=O)NC(C)(C)C)N(C)C1=O [Compound 70] (cyclo([Ac5c][NMeV][d(β3hA)][NMeL]I[NMeS](CH2CONHtBu)[Aze][NMeCha][Sar][hPhe(3-Cl-4-CF3)]P)) is strictly below 70 nM.
0 (no)

Please indicate whether the reported IC50 of CCCC[C@@H]1NC(=O)[C@H](CCc2ccc(C(F)(F)F)c(Cl)c2)NC(=O)CN(C)C(=O)[C@H](Cc2ccc(Cl)cc2)N(C)C(=O)[C@@H]2CCN2C(=O)[C@H](C)N(C)C(=O)[C@H]([C@@H](C)CC)NC(=O)[C@@H]2CCCCN2C(=O)C[C@@H](C(=O)N2CCCCC2)N(C)C(=O)[C@H](CC(C)C)NC(=O)C(C)(C)N(C)C1=O [Compound 103] ([Pip]I[NMeA][Aze][NMePhe(4-Cl)][Sar][hPhe(3-Cl-4-CF3)][Nle][NMeAib]L[NMeD]-Piperidide; lactam N-11) is strictly below 70 nM.
1 (yes)

Please indicate whether the reported IC50 of CC(C)C[C@H]1C(=O)N[C@@H](CC2CCCC2)C(=O)N(C)[C@@H](C)C(=O)N2CC[C@H]2C(=O)N(C)[C@@H](CC2CCCCC2)C(=O)N(C)CC(=O)N[C@@H](CCc2ccc(C(F)(F)F)c(Cl)c2)C(=O)N2CCC[C@H]2C(=O)NC2(CCCC2)C(=O)N(C)[C@@H](C(C)C)C(=O)N(C)[C@H](C(=O)N2CCCCC2)CC(=O)N1C [Compound 84] ([NMeL][Ala(cPent)][NMeA][Aze][NMeCha][Sar][hPhe(3-Cl-4-CF3)]P[Ac5c][NMeV][NMeD]-Piperidide; lactam N-11) is strictly below 70 nM.
0 (no)

Please indicate whether the reported IC50 of CC[C@H](C)[C@@H]1NC(=O)[C@H](CC(C)C)N(C)C(=O)C[C@@H](C(=O)N2CCCCC2)N(C)C(=O)[C@H](C(C)C)N(C)C(=O)C2(CCCC2)NC(=O)[C@@H]2CCCN2C(=O)[C@H](CCc2ccc(C(F)(F)F)c(Cl)c2)NC(=O)CN(C)C(=O)[C@H](CC2CCCCC2)N(C)C(=O)[C@@H]2CCN2C(=O)[C@H](CC2CCC2)N(C)C1=O [Compound 1603] ([NMeL]I[NMeCba][Aze][NMeCha][Sar][hPhe(3-Cl-4-CF3)]P[Ac5c][NMeV][NMeD]-Piperidide; lactam N-11) is strictly below 70 nM.
0 (no)
